Test system: SNB-19 CNS
Assay: NCI-60 one-dose screen, 48 h (100 = growth as untreated, 0 = no growth, -100 = all killed)
Conditions: 10 µM unless noted
About 83,000 compounds went through this panel and 20% of them were active in at least one assay; those are over-represented in the sample as a whole. Active and inactive are the calls of the source. How the source made its calls: active means growth percent below 10; inactive means the rest.

{"Compound": "N#Cc1c(Nc2ccc(F)cc2)n[nH]c1-c1cccs1", "growth": "85.6% (inactive)"}
{"Compound": "O=C1N[C@@H]2[C@@H](O)[C@@H](O)[C@H](O)C[C@H]2c2cc3c(c(O)c21)OCCO3", "growth": "-10.4% (active)"}
{"Compound": "COc1ccc2nc3ccccc3c(NCc3ccc(F)cc3)c2c1", "growth": "17.7% (inactive)"}
{"Compound": "Cc1nc2sc(C(=O)Nc3ccc(Cl)cc3)c(N)c2cc1C(O)c1ccccc1 (stereo not given)", "growth": "41.2% (inactive)"}
{"Compound": "CS(=O)(=O)Nc1cc(-c2ccc3ncnc(Nc4ccc5c(cnn5Cc5cccnc5)c4)c3c2)cnc1Cl", "growth": "60.1% (inactive)"}
{"Compound": "CCCCCCCCn1ccc2cc(NC(=O)Cn3cc(CN4CCCCCC4)nn3)ccc21", "growth": "14.4% (inactive)"}
{"Compound": "C=CCn1c(SCC(=O)Nc2ccc(C(=O)/C=C/c3cc(OC)c(OC)c(OC)c3)cc2)nnc1-c1cc(-c2ccc(OC)cc2)nc2ccccc12", "growth": "90.3% (inactive)"}
{"Compound": "COC(=O)C1=C(C)NC(C)=C(C(=O)OCC(C)C)C1c1ccccc1[N+](=O)[O-] (stereo not given)", "growth": "82.4% (inactive)"}
{"Compound": "C#CCn1cnc2c(Nc3cccc(NC(=O)CCl)c3)ncnc21", "growth": "58.7% (inactive)"}
{"Compound": "C=CC(=O)N1CCN(c2ccc3cccc(NC(=O)c4cnc(C)cn4)c3n2)CC1", "growth": "62.4% (inactive)"}
{"Compound": "CCNC(=O)Oc1ccc(/C(=C(/C)Cc2ccc(OC)cc2)c2ccc(OCCN3CCCC3)cc2)cc1", "growth": "80.4% (inactive)"}
{"Compound": "COc1ccc(/C(C)=C(\\c2ccc(Cl)cc2)c2ccc(OCCN3CCCC3)cc2)cc1", "growth": "52.1% (inactive)"}
{"Compound": "CCOC(=O)c1c(C)nc2ccccc2c1/C=C/c1ccc(OC)cc1", "growth": "75.9% (inactive)"}
{"Compound": "Cn1cc(/C=C2/C(=O)Nc3ccccc32)c2ccccc21", "growth": "102% (inactive)"}
{"Compound": "CN(C)c1ccc(/C=C/C(=O)c2ccc(Nc3nc(Nc4ccc(F)cc4)nc(Nc4ccc(Cl)cc4)n3)cc2)cc1", "growth": "92.7% (inactive)"}
{"Compound": "C=CCN=C(N)SCCCCCCSC(N)=NCC=C", "growth": "102% (inactive)"}
{"Compound": "COc1ccc(NC(=O)c2sc3nc4c(cc3c2N)CCCC4)cc1", "growth": "34.7% (inactive)"}
{"Compound": "COc1ccc(Nc2ncccc2NC(=O)c2cn(Cc3cccc(Oc4ccccc4)c3)nn2)cc1OC", "growth": "79.2% (inactive)"}
{"Compound": "O=C(O)c1cn(C2CC2)c2cc(N3CCN(C(=O)N/N=C/c4ccccc4)CC3)c(F)cc2c1=O", "growth": "94.7% (inactive)"}
{"Compound": "Cc1nc2sc(C(=O)Nc3cccc(Cl)c3)c(N)c2cc1C(O)c1ccccc1 (stereo not given)", "growth": "33.4% (inactive)"}
{"Compound": "COc1cccc(Nc2ccnc3[nH]c4ccc([N+](=O)[O-])cc4c23)c1", "growth": "37.4% (inactive)"}
{"Compound": "COc1ccc(-c2ccc(-c3ccc(C(=N)N)cn3)s2)cc1", "growth": "88.6% (inactive)"}
{"Compound": "CCN(CC)c1ccc(N2C(=O)/C(=C/c3cccs3)SC2=S)cc1", "growth": "94.6% (inactive)"}
{"Compound": "Cc1ccc(/C=C/C(=O)c2ccc(NC(=O)CSc3nc4c([nH]3)c(=O)n(C)c(=O)n4C)cc2)c(C)c1", "growth": "0.886% (active)"}
{"Compound": "COC(=O)c1ccc2c(c1)c1c(C)c3ccncc3c(C)c1n2C", "growth": "29% (inactive)"}
{"Compound": "COc1cccc2c(N=NC(=O)c3ccc(S(N)(=O)=O)cc3)c(O)[nH]c12", "growth": "97.1% (inactive)"}
{"Compound": "Cc1[nH]c(/C=C/C(=O)c2ccc(C(F)(F)F)c(F)c2)c(C)c1C(=O)NCC(C)C", "growth": "92.2% (inactive)"}
{"Compound": "CCN(CC)CCNC(=O)c1ccc(-c2nc3ccc4[nH]ncc4c3c3c2CCCC3)cc1", "growth": "85.4% (inactive)"}
{"Compound": "CN1CCN(Cc2cc(NC(=O)c3cccc(C#Cc4cccc5[nH]nc(N)c45)c3)cc(C(F)(F)F)c2)CC1", "growth": "52.1% (inactive)"}
{"Compound": "O=C(O)C1CN(c2cccc(Cl)c2)N(c2cccc(Cl)c2)C1=O (stereo not given)", "growth": "82.8% (inactive)"}
{"Compound": "CCOC(=O)N1CCN(S(=O)(=O)c2oc(-c3ccc(Cl)cc3)nc2C#N)CC1", "growth": "98.3% (inactive)"}
{"Compound": "CN1CCCc2cc(/C=C3/SC(=S)N(CCc4ccc(O)cc4)C3=O)ccc21", "growth": "92.9% (inactive)"}
{"Compound": "Clc1ccc(-c2cn3ccsc3n2)c(Cl)c1Cl", "growth": "105% (inactive)"}
{"Compound": "CCCn1c(=S)sc2c1nc(C)n1c(Nc3ccccc3)nnc21", "growth": "70.8% (inactive)"}
{"Compound": "O=C(CCCCCCN1CC(=O)N2[C@@H](c3ccc(Cl)cc3)c3[nH]c4ccccc4c3C[C@H]2C1=O)NO", "growth": "67.1% (inactive)"}
{"Compound": "NC(=S)N/N=C/c1cn(-c2ccccc2)nc1-c1cc2ccccc2oc1=O", "growth": "56.6% (inactive)"}
{"Compound": "Clc1nccc2c(-c3csc(-c4c[nH]c5ccccc45)n3)c[nH]c12", "growth": "71.8% (inactive)"}
{"Compound": "CC(C)[C@@]12C[C@@H](OC(=O)COC(=O)c3ccccc3)[C@@](C)(O1)[C@@H]1CC[C@@H](C)[C@H]1[C@@H]2OC(=O)/C=C/c1ccccc1", "growth": "84.5% (inactive)"}
{"Compound": "CN(CCC#N)c1ccc(/C=C2\\NC(=O)NC2=O)cc1", "growth": "102% (inactive)"}
{"Compound": "COc1ccc(Cl)cc1Nc1nc(C(F)(F)F)ccc1C(=O)N/N=C/c1ccccc1Cl", "growth": "9.47% (active)"}
